Hey, just so you know, these numbers are from ChEMBL document CHEMBL1909046.

SYSTEM_TESTED: UniProt P43140
Sequence (P43140 whole entry): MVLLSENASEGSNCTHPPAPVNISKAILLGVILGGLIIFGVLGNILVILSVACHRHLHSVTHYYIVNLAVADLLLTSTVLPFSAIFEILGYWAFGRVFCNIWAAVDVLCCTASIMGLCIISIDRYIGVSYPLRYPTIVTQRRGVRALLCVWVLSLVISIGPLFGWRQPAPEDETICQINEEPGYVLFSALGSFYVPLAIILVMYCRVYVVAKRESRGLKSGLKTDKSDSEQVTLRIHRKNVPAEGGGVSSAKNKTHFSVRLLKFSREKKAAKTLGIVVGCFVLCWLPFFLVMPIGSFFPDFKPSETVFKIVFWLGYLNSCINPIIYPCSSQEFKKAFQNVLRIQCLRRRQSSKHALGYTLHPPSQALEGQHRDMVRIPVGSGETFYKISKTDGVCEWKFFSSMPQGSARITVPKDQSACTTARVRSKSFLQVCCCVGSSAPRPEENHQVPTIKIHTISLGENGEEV
ASSAY_DETAILS: DRUGMATRIX: Alpha-1A adrenergic receptor radioligand binding (ligand: prazosin)
Format: cell membranes, Wistar, Submaxillary gland, Membrane
EXPERIMENTAL_CONDITIONS: Not Active = under 50% inhibition at 10 µM; read-out: IC50
QUANTITY_NAME: log10(IC50) (log10 of the value in nM)

COMPOUND | OBSERVED_VALUE
CC(C)C[C@H]1C(=O)N2CCC[C@H]2[C@]2(O)O[C@](NC(=O)[C@@H]3C=C4c5cccc6[nH]cc(c56)C[C@H]4N(C)C3)(C(C)C)C(=O)N12 | 1.04
CN1CCCC(CN2c3ccccc3Sc3ccccc32)C1 (stereo unspecified) | 2.16
CN(C)CCC=C1c2ccccc2CCc2ccccc21 | 1.15
CN(C)C(=O)C(CCN1CCC(O)(c2ccc(Cl)cc2)CC1)(c1ccccc1)c1ccccc1 [LOPERAMIDE] | 3.79
CN1[C@@H]2CC[C@H]1C[C@@H](OC(c1ccccc1)c1ccccc1)C2 | 2.15
N=C(N)c1ccc(OCCCCCOc2ccc(C(=N)N)cc2)cc1 | 3.08

----------
SYSTEM_TESTED: Muscarinic acetylcholine receptor M4 (Homo sapiens, UniProt P08173); note: in other assays of this panel Not Active means under 50% inhibition at 10 µM
Sequence (P08173 whole entry): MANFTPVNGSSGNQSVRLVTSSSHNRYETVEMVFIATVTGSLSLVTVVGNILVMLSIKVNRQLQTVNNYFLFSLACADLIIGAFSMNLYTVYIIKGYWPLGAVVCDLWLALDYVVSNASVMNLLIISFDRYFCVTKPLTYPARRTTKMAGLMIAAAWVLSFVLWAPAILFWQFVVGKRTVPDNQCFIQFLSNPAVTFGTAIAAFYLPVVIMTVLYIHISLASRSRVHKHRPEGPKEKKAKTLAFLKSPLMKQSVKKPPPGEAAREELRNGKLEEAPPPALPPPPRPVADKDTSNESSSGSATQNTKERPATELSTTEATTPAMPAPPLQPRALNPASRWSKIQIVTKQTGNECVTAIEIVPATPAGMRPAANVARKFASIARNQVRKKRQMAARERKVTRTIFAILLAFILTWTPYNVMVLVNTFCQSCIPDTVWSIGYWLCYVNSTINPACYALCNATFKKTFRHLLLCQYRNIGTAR
Type: cell membranes, CHO-K1, Membrane
EXPERIMENTAL_CONDITIONS: read-out: IC50
pIC50: −log10 of the molar value.

COMPOUND_STRUCTURE_STRING | pIC50
CN1CCN(C(c2ccccc2)c2ccccc2)CC1 | 6.07
CN(C)CCC=C1c2ccccc2CCc2ccccc21 | 8.28
CN1CCC(=C2c3ccccc3CC(=O)c3sccc32)CC1 | 6.00

----------
SYSTEM_TESTED: Delta-type opioid receptor (Homo sapiens, UniProt P41143); note: in other assays of this panel Not Active means under 50% inhibition at 10 µM
Sequence (P41143 whole entry): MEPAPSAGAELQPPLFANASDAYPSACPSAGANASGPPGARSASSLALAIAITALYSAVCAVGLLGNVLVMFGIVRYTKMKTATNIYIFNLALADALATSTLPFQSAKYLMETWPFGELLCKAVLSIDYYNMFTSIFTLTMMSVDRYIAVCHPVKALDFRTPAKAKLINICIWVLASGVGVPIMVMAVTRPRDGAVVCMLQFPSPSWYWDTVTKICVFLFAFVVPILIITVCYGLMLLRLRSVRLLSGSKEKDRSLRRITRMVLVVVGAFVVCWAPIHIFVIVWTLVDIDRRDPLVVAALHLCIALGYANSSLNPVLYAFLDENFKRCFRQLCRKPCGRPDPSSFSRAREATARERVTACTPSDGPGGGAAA
Type: cell membranes, HEK293, Membrane
EXPERIMENTAL_CONDITIONS: hek293
QUANTITY_NAME: IC50

COMPOUND | OBSERVED_VALUE
CC[C@H]1[C@@H]2C[C@H]3[C@@H]4N(C)c5ccccc5[C@]45C[C@@H]([C@@H]2[C@H]5O)N3[C@@H]1O | Not Active
CCCNC(C)C(=O)Nc1ccccc1C (centres undefined) | Not Active
O=C(O)CCNC(=O)c1ccc(/N=N/c2ccc(O)c(C(=O)O)c2)cc1 [BALSALAZIDE] | Not Active
COc1ccccc1N | Not Active
Cc1ccc(C(=O)c2ccc(CC(=O)O)n2C)cc1 | Not Active
C[N+](C)(C)CCOC(=O)CCC(=O)OCC[N+](C)(C)C.[Cl-].[Cl-] [SUCCINYLCHOLINE CHLORIDE] | Not Active
CCc1ccc(CCOc2ccc(CC3SC(=O)NC3=O)cc2)nc1 (centres undefined) | Not Active
OCCOCCN1CCN(C2=Nc3ccccc3Sc3ccccc32)CC1 | Not Active
C[C@H]1[C@H](NC(=O)/C(=N\OC(C)(C)C(=O)O)c2csc(N)n2)C(=O)N1S(=O)(=O)O | Not Active

----------
ASSAY_DETAILS: DRUGMATRIX: Glutamate, NMDA, Phencyclidine radioligand binding (ligand: [3H] TCP)
Assay type: cell membranes, Rattus norvegicus, Wistar, Cerebral cortex, Membrane
EXPERIMENTAL_CONDITIONS: Not Active = under 50% inhibition at 10 µM
QUANTITY_NAME: Ki

SUBSTANCE | OBSERVED_VALUE
ZIRCONIUM(IV) CHLORIDE | Not Active
TRANSPLATIN | Not Active
COBALTOUS CHLORIDE | Not Active
COLISTIN | Not Active
